Data provenance: the NIST ThermoML archive (doi:10.1016/j.fluid.2016.07.022)

settings: 338.15 K; 101.33 kPa; Liquid; Vibrating tube method
attribute measured: mass density (kg/m3)

# molecule, attribute measured, readout units, measured value
data = [
    ("CC(=O)[O-].CCCC[NH2+]CCO [N-(2-hydroxyethyl)butan-1-aminium acetate]", "mass density", "kg/m3", 989.3),
    ("CCC(=O)[O-].CCCC[NH2+]CCO [N-(2-hydroxyethyl)butan-1-aminium propionate]", "mass density", "kg/m3", 972.5),
    ("CCCC(=O)[O-].CCCC[NH2+]CCO [N-(2-hydroxyethyl)butan-1-aminium butyrate]", "mass density", "kg/m3", 950.7),
    ("CCCC[NH2+]CCO.O=C[O-] [N-(2-hydroxyethyl)butan-1-aminium formate]", "mass density", "kg/m3", 1010.9),
    ("CCCCC(=O)[O-].CCCC[NH2+]CCO [N-(2-hydroxyethyl)butan-1-aminium pentanoate]", "mass density", "kg/m3", 937.4),
]
